Provide the reported IC50 of each item.
Target under test: PIK3CD (Human)
Test name: Assessment of PIK3CD Kinase Activity (Scintillation Proximity Assay)

For the compound shown here, CCOc1c(C(C)n2nc(C)c3c(N)ncnc32)cc(Cl)c(F)c1C1CN(C[C@H](C)O)C1 (some centres undefined) , give the reported IC50.
≤ 10 nM

For the compound shown here, COc1c(C(C)n2ccc3c(N)ncnc32)cc(Cl)c(C)c1-c1ccc(C(=O)N(C)C)nc1 (centres undefined) , give the reported IC50.
200 to 500 nM

For the compound shown here, COc1c(C(C)n2nc(C)c3c(N)ncnc32)cc(Cl)c(C)c1C1CN(CC(C)(C)O)C1 (centres undefined) , give the reported IC50.
≤ 10 nM

For the compound shown here, COc1c(C(C)n2nc(C)c3c(N)ncnc32)cc(Cl)c(C)c1-c1cncc(C(=O)N(C)C2CC2)c1 (centres undefined) , give the reported IC50.
≤ 10 nM

For the compound shown here, COc1c(C(C)n2nc(C)c3c(N)ncnc32)cc(Cl)c(C)c1C1CN(C2CCOCC2)C1 (centres undefined) , give the reported IC50.
≤ 10 nM

For the compound shown here, CCOc1c(C(C)n2nc(C)c3c(N)ncnc32)cc(Cl)c(C)c1C1CN(CCO)C1 (centres undefined) , give the reported IC50.
≤ 10 nM

For the compound shown here, COc1c(C(C)n2nc(C)c3c(N)ncnc32)cc(C#N)c(C)c1-c1ccnc(C(=O)N(C)CCO)c1 (centres undefined) , give the reported IC50.
10 to 50 nM

For the compound shown here, CCOc1c(C(C)n2nc(C)c3c(N)ncnc32)cc(Cl)c(C#N)c1C1CN(C2CCC2)C1 (centres undefined) , give the reported IC50.
≤ 10 nM

For the compound shown here, COc1c(C(C)n2nc(C)c3c(N)ncnc32)cc(Cl)c(C)c1CCC(=O)N(C)C (centres undefined) , give the reported IC50.
≤ 10 nM
